Entry source: patent US7612238B2

target: human S1P receptors (S1P4) (Homo sapiens); test: S1P receptor profiling, GTP[γ-35S] binding SPA, S1P4; details: GTP[γ-35S] binding, membranes of transfected CHO or RH7777 cells
Sequence (O95977 whole entry): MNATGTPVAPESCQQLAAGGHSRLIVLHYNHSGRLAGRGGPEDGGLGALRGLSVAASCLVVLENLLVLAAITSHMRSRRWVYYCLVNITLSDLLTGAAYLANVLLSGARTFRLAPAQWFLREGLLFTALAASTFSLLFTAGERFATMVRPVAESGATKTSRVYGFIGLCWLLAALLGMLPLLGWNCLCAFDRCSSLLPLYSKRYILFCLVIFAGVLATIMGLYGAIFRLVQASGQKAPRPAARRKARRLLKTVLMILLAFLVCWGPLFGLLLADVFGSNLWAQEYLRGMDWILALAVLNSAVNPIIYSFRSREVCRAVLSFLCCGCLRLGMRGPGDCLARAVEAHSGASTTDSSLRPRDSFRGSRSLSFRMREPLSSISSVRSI
pEC50: −log10 of the molar value.
METRIC_NAME: pEC50

P = C[C@@](N)(CCc1ccc(OCCCC(F)(F)C(F)(F)F)cc1)COP(=O)(O)O
Q = CC(N)(CCc1ccc(OCCc2ccc3ccccc3c2)cc1)COP(=O)(O)O (stereo not drawn)
Lower pEC50: P or Q ? Output the label that corresponds to your choice.
P
(P: 7.82, Q: 8.74)

----------
target: human S1P receptors (S1P5) (Homo sapiens); experiment: S1P receptor profiling, GTP[γ-35S] binding SPA, S1P5; settings: GTP[γ-35S] binding, membranes of transfected CHO or RH7777 cells
Sequence (Q9H228 whole entry): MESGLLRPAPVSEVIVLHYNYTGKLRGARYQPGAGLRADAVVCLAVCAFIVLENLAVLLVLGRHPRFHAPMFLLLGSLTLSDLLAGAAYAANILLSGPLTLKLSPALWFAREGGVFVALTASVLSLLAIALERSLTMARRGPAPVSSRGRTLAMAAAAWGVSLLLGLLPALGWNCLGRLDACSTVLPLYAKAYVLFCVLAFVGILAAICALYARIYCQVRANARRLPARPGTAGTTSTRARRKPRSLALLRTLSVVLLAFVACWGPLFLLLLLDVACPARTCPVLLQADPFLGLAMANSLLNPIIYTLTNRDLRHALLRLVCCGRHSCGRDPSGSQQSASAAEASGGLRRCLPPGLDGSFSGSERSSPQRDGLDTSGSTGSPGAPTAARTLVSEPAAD
pEC50: −log10 of the molar value.
METRIC_NAME: pEC50

1 = COc1ccc(CCOc2ccc(CCC(N)(CO)COP(=O)(O)O)cc2)cc1F (stereo not shown)
2 = C[C@@](N)(CCc1ccc(OCCCC(F)(F)C(F)(F)F)cc1)COP(=O)(O)O
3 = CC(N)(CCc1ccc(OCCc2ccc3ccccc3c2)cc1)COP(=O)(O)O (stereo not shown)
4 = C[C@@](N)(CCc1ccc(C(=O)CCc2ccc(-c3ccccc3)cc2)cc1)COP(=O)(O)O
Order each entry by recorded pEC50, climbing from the minimum. List the labels, following the order given in the request.
3, 1, 4, 2

----------
Measured melting point of individual entries
Structures can show the parent of a compound that is named as a salt.

In [3]: df
Out[3]:
                                   compound     meas_value
0  C[C@](N)(CO)CCc1ccc(OCCCCCF)cc1 (as salt: hydrochloride)  143 to 146 °C
1  C[C@@](N)(CCc1ccc(OCCCC(F)(F)C(F)(F)F)cc1)COP(=O)(O)O  229 to 231 °C

Form field: reported melting point of C[C@@](N)(CCc1ccc(OCCCCCF)cc1)COP(=O)(O)O
237 to 241 °C

Form field: reported melting point of C[C@](N)(CO)CCc1ccc(OCCCC(F)(F)C(F)(F)F)cc1 (as salt: hydrochloride)
186 to 189 °C

----------
molecular target: human S1P receptors (S1P3) (Homo sapiens, UniProt Q99500); construct: expressed in transfected cells; test: S1P receptor profiling, GTP[γ-35S] binding SPA, S1P3; type: biochemical; details: GTP[γ-35S] binding, membranes of transfected CHO or RH7777 cells
Sequence (Q99500 whole entry): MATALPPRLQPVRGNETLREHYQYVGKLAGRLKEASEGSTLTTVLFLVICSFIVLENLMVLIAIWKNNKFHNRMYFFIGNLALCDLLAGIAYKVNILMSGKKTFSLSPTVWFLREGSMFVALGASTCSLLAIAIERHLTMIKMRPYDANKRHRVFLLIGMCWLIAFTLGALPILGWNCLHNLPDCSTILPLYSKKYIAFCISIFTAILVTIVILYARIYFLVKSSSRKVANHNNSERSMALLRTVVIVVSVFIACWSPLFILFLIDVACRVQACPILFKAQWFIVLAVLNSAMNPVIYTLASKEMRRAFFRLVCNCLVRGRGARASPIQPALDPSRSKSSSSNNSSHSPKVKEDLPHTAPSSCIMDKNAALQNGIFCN
pEC50: −log10 of the molar value.
Measured pEC50 of individual entries

Answered examples (3):
                                   molecule  meas_value
0  CC(N)(CCc1ccc(OCCc2ccc3ccccc3c2)cc1)COP(=O)(O)O (stereo not shown)      < 5.00
1  C[C@@](N)(CCc1ccc(OCCCC(F)(F)C(F)(F)F)cc1)COP(=O)(O)O      < 5.00
2  COc1ccc(CCOc2ccc(CCC(N)(CO)COP(=O)(O)O)cc2)cc1F (stereo not shown)      < 5.00

Request: pEC50, test system human S1P receptors (S1P3) (Homo sapiens, UniProt Q99500), entry C[C@@](N)(CCc1ccc(C(=O)CCc2ccc(-c3ccccc3)cc2)cc1)COP(=O)(O)O
6.71
